- Test system: Shigella sonnei ATCC 9290
- assayProcedure: Antibacterial activity, agar dilution method, pH 7.0 (SS)
- Assay type: cell-based
- setupConditions: ATCC9290, pH 7, read-out: minimum growth inhibitory concentration
outcomeMeasure: MIC (µg/mL)
Write the number in µg/mL without appending the unit.

Previously resolved entries follow.
| compound | studySystem | displayUnit | MIC |
| --- | --- | --- | --- |
| CO[C@]12[C@@H]3[C@H](CN1C1=C(C(=O)C(N=CN(C)C)=C(C)C1=O)[C@@H]2COC(N)=O)N3C (some centres unmarked) | Shigella sonnei ATCC 9290 | µg/mL | 10 |
| C=C1C2=C(C(=O)C(C)=C(N=CN(C)C)C2=O)N2C[C@H]3[C@H](N3C)[C@]12O (some centres unmarked) | Shigella sonnei ATCC 9290 | µg/mL | 10 |
| CC1=C(N=CN(C)C)C(=O)C2=C(C1=O)N1C[C@H]3[C@H](N3C)[C@]1(O)[C@@H]2COC(N)=O (some centres unmarked) | Shigella sonnei ATCC 9290 | µg/mL | 40 |

# query: MIC of entry `C=C1C2=C(C(=O)C(C)=C(N=CN(C)C)C2=O)N2C[C@@H]3N[C@@H]3[C@]12OC`
20
